Provenance of the data: the supplement of paper PMC10567573

Exercise: for every item that follows, state its recorded protein stability index.
B1: VAMP4 (parent)
chain: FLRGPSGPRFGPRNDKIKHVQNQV

- Variants of: B1
- procedure details: protein stability index of a GFP-peptide fusion (GPS, HEK-293T) (PSI 1-6); higher = more stable;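 further: lentivirally expressed fusions sorted by FACS into six bins by GFP to DsRed ratio, PSI derived from sequencing read proportions per bin multiplied by bin number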
- test settings: c terminus: a fixed tail appended
Answers are plain numbers.

Would you mind telling me what protein stability index value was observed for N14A ?
2.35

Consider the variant shown here: V24H What is its recorded protein stability index?
3.18

// returns reported protein stability index for input Q21S
2.47

Using the record for S6F , report its protein stability index.
2.64

Which value of protein stability index has been reported for N14P in the records?
3.04

Field: protein stability index. Fill in for each record below.
1. K18N
2. H19E
3. V24N
4. V20A

1. 2.83
2. 2.7
3. 3.49
4. 2.63

Batch request: protein stability index for each of the following variants.
1. R9A
2. F10V

1. 2
2. 2.67
